Every entry's value here was drawn from paper PMC10397247.

# tested-target: T1, P6bHq
# T1 chain: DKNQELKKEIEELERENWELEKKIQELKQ
# method-notes: two-hybrid library CCNG1;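 note: natural log of median RNA to DNA barcode read ratio; higher means stronger binding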
assay-readout: interaction score

Example entries and their recorded answers appear below.
DENSQLEQKISELKQKNSELKWEISQLEQ [P5A-bS] ... 1.33
DKIQELKKKIEELKRENWELEKENQELEQ [P4bHq] ... -0.00957
DKNQELKKEIEELERENWELEKKIQELKQ [P6bHq] ... 1.03

(A) DKIQELKKKNEELKRKNWELKKKIQELKQ [P2bHq]
(B) DEIQELEKEIEELERKNWELKKKNQELKQ [P3bHq]
Input line: Given A and given B , which shows the smaller recorded interaction score? Bench note: the answer is the label of the chosen record.
Output line: B
(B: -0.227, A: 1.33)

(1) DENQELEKEIEELEREIWELEKKNQELKQ [P11bHq]
(2) DEIQELEKENEELERENWELEKEIQELEQ [P1bHq]
(3) DKNQELKKENEELERKIWELKKKIQELKQ [P10bHq]
(4) DKNQELKKKIEELKRKIWELKKENQELEQ [P12bHq]
Input line: Sort the binders on interaction score; start with the lowest figure. Reply: labels, ordered per the request.
Output line: 2, 4, 1, 3
(2: -0.273, 4: 0.286, 1: 0.74, 3: 1.3)
